# test system: Dimeric Human Ang-2FD conjugated to human IgG1 (human)
# Sequence (chain, as listed by the source limits assumed): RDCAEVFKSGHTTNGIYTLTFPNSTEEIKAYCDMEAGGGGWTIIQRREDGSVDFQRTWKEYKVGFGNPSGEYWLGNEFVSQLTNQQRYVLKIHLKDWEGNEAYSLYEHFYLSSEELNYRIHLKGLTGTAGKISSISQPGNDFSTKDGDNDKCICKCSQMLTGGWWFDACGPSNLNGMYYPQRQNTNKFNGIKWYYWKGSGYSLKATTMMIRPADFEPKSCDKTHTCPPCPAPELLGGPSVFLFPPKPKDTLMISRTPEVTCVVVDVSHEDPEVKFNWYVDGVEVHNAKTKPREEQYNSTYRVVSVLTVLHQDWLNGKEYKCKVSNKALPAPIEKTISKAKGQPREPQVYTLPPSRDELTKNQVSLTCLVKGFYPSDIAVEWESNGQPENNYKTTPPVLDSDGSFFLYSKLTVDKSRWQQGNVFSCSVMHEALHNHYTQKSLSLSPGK
# assay comment: SPR, antibody captured, room temperature
Consider the following binders and their measured T1/2 readings.
Give the figure together with its unit, number first.

[[record]]
binder = "H1M732N (antibody, V domains shown) VH: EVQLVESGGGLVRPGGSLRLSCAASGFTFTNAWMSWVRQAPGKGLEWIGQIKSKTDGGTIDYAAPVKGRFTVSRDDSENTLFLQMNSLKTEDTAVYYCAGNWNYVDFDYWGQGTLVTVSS VL: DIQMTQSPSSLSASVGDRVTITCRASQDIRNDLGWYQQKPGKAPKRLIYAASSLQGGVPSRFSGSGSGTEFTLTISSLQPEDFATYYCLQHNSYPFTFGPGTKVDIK"
observed_result = "35.5 min"


Here's the next entry for you.
// query T1/2 value for entry H2M750N (antibody, V domains shown) VH: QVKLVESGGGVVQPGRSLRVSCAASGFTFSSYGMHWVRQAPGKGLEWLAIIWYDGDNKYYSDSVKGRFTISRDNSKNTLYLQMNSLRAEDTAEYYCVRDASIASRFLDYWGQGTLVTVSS VL: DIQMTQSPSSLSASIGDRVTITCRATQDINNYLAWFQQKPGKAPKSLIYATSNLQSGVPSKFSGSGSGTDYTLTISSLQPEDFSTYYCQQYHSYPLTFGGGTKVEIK
32.2 min
